Kindly supply the reported AC50 values for the records listed here.
Test system: MYB mRNA
Experiment: Splicing RT-qPCR assay, canonical (CJ) and alternative (AJ) junction mRNA, K562 cells
Format: cell-based
Conditions: Homo sapiens, K562.3 cells, 24 hours, read-out: MYB AJ (AC50, increase in AJ mRNA)

Hi! Can you tell me AC50 for each of these molecules?
1. Cc1cn2cc(NC(=O)c3ccc(N4CCC(NC5CC5)CC4)c4cc(C)oc34)cc(F)c2n1
2. Cn1cc2cc(NC(=O)c3c(O)cc(N4CC[C@@H](NC5CC5)C4)c4cn(C)nc34)cc(F)c2n1
3. COCCN[C@@H]1CCN(c2ccc(C(=O)Nc3cc(F)c4nc(C)cn4c3)c3nn(C)cc23)C1
4. COCC1(N[C@@H]2CCN(c3ccc(C(=O)Nc4cc(F)c5nc(C)cn5c4)c4nn(C)cc34)C2)CC1
5. CN[C@@H]1CN(c2ccc(C(=O)Nc3cc(F)c4nc(C)cn4c3)c3nn(C)cc23)C[C@H]1C

0.1 to 1 µM
< 0.1 µM
0.1 to 1 µM
0.1 to 1 µM
0.1 to 1 µM
